# System: Mycobacteroides abscessus
# Assay explanation: Antimicrobial activity against Mycobacterium abscessus R50 isolate after 3 to 5 days by broth microdilution method
# Format: functional
Endpoint name: MIC (µg/mL)
I only need the number, in µg/mL, no unit after it.

Exercise: Look up MIC for this compound: "CN[C@@H]1[C@@H](O)[C@@H](O[C@@H]2[C@@H](O)[C@H](O[C@H]3O[C@H](CN)[C@@H](O)[C@H](O)[C@H]3O)[C@@H](N)C[C@H]2NC(=O)[C@@H](O)CN)OC[C@]1(C)O"
Key: 16

---

# Test system: Mycobacteroides abscessus
# Assay explanation: Antimicrobial activity against Mycobacterium abscessus R49 isolate after 3 to 5 days by broth microdilution method
# Type: functional
# note: exactly 8 µg/mL is not below, so it is Criterion not met; use Criterion met for MIC strictly under it

Exercise: Identify whether the molecule NC[C@H]1O[C@H](O[C@H]2C(O)[C@@H](O[C@H]3O[C@H](CO)[C@@H](O)[C@H](N)[C@H]3O)[C@H](N)C[C@@H]2N)[C@H](N)C[C@@H]1O (single isomer, unassigned) [TOBRAMYCIN] records MIC below 8 µg/mL.
Key: Criterion not met

Exercise: Identify whether the molecule CN[C@@H]1[C@H](O[C@H]2[C@H](O[C@H]3[C@H](O)[C@@H](O)[C@H](N=C(N)N)[C@@H](O)[C@@H]3N=C(N)N)O[C@@H](C)[C@]2(O)C=O)O[C@@H](CO)[C@H](O)[C@H]1O (stereo in doubt) [STREPTOMYCIN] records MIC below 8 µg/mL.
Key: Criterion not met

Exercise: Identify whether the molecule NCC[C@H](O)C(=O)N[C@@H]1C[C@H](N)[C@@H](O[C@H]2O[C@H](CN)[C@@H](O)[C@H](O)[C@H]2O)[C@H](O)[C@H]1O[C@H]1O[C@H](CO)[C@@H](O)[C@H](N)[C@H]1O [AMIKACIN] records MIC below 8 µg/mL.
Key: Criterion not met

Exercise: Identify whether the molecule NC[C@H]1O[C@H](O[C@H]2[C@H](O)[C@@H](O[C@H]3O[C@H](CO)[C@@H](O)[C@H](N)[C@H]3O)[C@H](N)C[C@@H]2N)[C@H](O)[C@@H](O)[C@@H]1O [KANAMYCIN] records MIC below 8 µg/mL.
Key: Criterion met
